Recorded solubility kinetic for the following compounds
- measurement.notes: physchem
- condition.set: phosphate buffered saline, pH 2
Report the figure in µM without appending any unit label.

CN1CCC(N/C(=N\S(=O)(=O)c2ccc(Cl)cc2)N2CC(c3ccccc3)C(c3ccc(Cl)cc3)=N2)CC1 (configuration not stated)	65
CNC(=NS(=O)(=O)c1ccc(Cl)cc1)N1CC(c2ccccc2)C(c2ccc(Cl)cc2)=N1 (configuration not stated)	4
O=S(=O)(N=C(NCCCCN1CCCC1)N1CC(c2ccccc2)C(c2ccc(Cl)cc2)=N1)c1ccc(Cl)cc1 (configuration not stated)	38
CN(C)CCN1CCN(/C(=N\S(=O)(=O)c2ccc(Cl)cc2)N2CC(c3ccccc3)C(c3ccc(Cl)cc3)=N2)CC1 (configuration not stated)	65

Here's the next entry for you.
Asked: Recall and state the measured solubility kinetic for CC(C)(O)CN=C(NS(=O)(=O)c1ccc(Cl)cc1)N1CC(c2ccccc2)C(c2ccc(Cl)cc2)=N1 (configuration not stated) .
Given back: 4

Ref: ChEMBL document CHEMBL1156813
